target: human Lck enzyme (Homo sapiens, UniProt P06239); construct: purchased Carna Biosciences, Inc. 08-170; test: Lck enzyme inhibitory activity (time-resolved fluorometry, biotinylated peptide phosphorylation); type: biochemical; settings: biotinylated peptide phosphorylation, read-out: LCK_IC50
Sequence (P06239 whole entry): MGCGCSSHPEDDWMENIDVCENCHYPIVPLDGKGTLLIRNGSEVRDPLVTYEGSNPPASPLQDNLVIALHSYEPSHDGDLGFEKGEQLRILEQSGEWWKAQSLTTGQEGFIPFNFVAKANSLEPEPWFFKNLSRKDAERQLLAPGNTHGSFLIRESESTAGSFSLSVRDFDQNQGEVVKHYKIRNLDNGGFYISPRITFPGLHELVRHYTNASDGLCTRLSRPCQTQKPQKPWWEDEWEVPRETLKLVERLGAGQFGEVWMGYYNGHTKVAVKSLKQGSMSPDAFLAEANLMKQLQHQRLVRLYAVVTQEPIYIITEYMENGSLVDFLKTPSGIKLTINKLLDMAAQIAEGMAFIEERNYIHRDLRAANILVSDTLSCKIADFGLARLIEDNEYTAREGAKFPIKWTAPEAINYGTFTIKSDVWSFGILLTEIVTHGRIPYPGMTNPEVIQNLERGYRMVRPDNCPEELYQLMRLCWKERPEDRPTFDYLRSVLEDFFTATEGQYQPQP
MEASURED PROPERTY: IC50 (nM)

COc1cc2cc(C(=O)c3cnn(-c4cnc(Oc5c(F)cccc5F)cc4C)c3N)[nH]c2cc1NS(=O)(=O)C1CC1 [Example 4-24-035]	5

1: Cc1cc(Oc2c(F)cccc2Cl)ncc1-n1ncc(C(=O)c2cc3cc(F)c(NS(=O)(=O)CCCF)cc3[nH]2)c1N [Example 4-2-024]
2: COc1cc2cc(C(=O)c3cnn(-c4cnc(Oc5ccccc5Cl)cc4C)c3N)[nH]c2cc1NS(C)(=O)=O [Example 4-1-010]
// query Smaller IC50 value? Options are 1 and 2 Please respond with the label that marks your chosen entry.
// result 1

P: Cc1cc(Oc2ccccc2F)ccc1-n1ncc(C(=O)c2cc3cc(F)c(N4C(=O)[C@@H]5CCCN5C4=O)cc3[nH]2)c1N [Example 5-1-448]
Q: Cc1cc2cc(C(=O)c3cnn(-c4cnc(Oc5ccccc5F)cc4C)c3N)[nH]c2cc1NS(C)(=O)=O [Example 4-2-061]
// query So which one has the bigger IC50 here, P or Q ? Please respond with the label that marks your chosen entry.
// result Q
(Q: 6.5 nM, P: 3.9 nM)

1: Cc1cc(Oc2ccccc2F)ccc1-n1ncc(C(=O)c2cc3cc(OC(F)F)c(-n4c(C)cc(=O)[nH]c4=O)cc3[nH]2)c1N [Example 4-23-031]
2: Cc1cc2cc(C(=O)c3cnn(-c4ccc(Oc5ccccc5F)cc4C)c3N)[nH]c2cc1N1C(=O)N[C@@H](C(C)C)C1=O [Example 5-1-476]
// query Smaller IC50 value? Options are 1 and 2 Please respond with the label that marks your chosen entry.
// result 1
(1: 5.2 nM, 2: 12 nM)

----------
target: human Src enzyme (Homo sapiens); construct: purchased Carna Biosciences, Inc. 08-173; experiment: Src enzyme inhibitory activity (time-resolved fluorometry, biotinylated peptide phosphorylation); format: biochemical; conditions: read-out: SRC_IC50
pIC50: −log10 of the molar value.
MEASURED PROPERTY: pIC50

Past entries and their recorded results:
CC(C)N1CCC(c2cc3[nH]c(C(=O)c4cnn(-c5ccc(Oc6cccc(F)c6)cc5F)c4N)cc3cc2F)CC1	7.25
Cc1cc(Oc2ccccc2F)ncc1-n1ncc(C(=O)c2cc3cc(SC(F)F)c(NS(=O)(=O)CCCF)cc3[nH]2)c1N	6.27
Cc1cc(Oc2ccccc2F)ccc1-n1ncc(C(=O)c2cc3cc(OCC(F)F)c(N4C(=O)NC5(CCNCC5)C4=O)cc3[nH]2)c1N	8.14
Cc1cc(Oc2c(F)cccc2F)ncc1-n1ncc(C(=O)c2cc3cc(OC4CCN(C(C)C)CC4)c(C4CCN(S(C)(=O)=O)CC4)cc3[nH]2)c1N	8.21
Cc1cc(Oc2ccccc2F)ccc1-n1ncc(C(=O)c2cc3cc(OCC(F)F)c(N4C(=O)[C@@H]5CCCN5C4=O)cc3[nH]2)c1N	7.85

1: Cc1cc(Oc2ccccc2F)ncc1-n1ncc(C(=O)c2cc3cc(F)c(NS(=O)(=O)NC4CC4)cc3[nH]2)c1N
2: Cc1cc(Oc2ccccc2F)ccc1-n1ncc(C(=O)c2cc3cc(OC(F)F)c(N)cc3[nH]2)c1N
3: Cc1cc(-n2ncc(C(=O)c3cc4cc(F)c(NS(C)(=O)=O)cc4[nH]3)c2N)cnc1Oc1ccccc1F
// query Put the items in order so that reported pIC50 rises from first to last. Reply with the labels, ordered as the question asks.
// result 3, 1, 2

----------
biological target: human Lck enzyme (Homo sapiens, UniProt P06239); construct: purchased Carna Biosciences, Inc. 08-170; assay: Lck enzyme inhibitory activity (time-resolved fluorometry, biotinylated peptide phosphorylation); assay type: biochemical; details: biotinylated peptide phosphorylation, read-out: LCK_IC50
pIC50: −log10 of the molar value.
MEASURED PROPERTY: pIC50

Past entries and their recorded results:
Cc1cc(Oc2ccccc2F)ncc1-n1ncc(C(=O)c2cc3cc(OCC(F)F)c(N4CCCC4=O)cc3[nH]2)c1N	8.40
Cc1cc(Oc2ccccc2F)ccc1-n1ncc(C(=O)c2cc3cc(N4CCOCC4)c(N4CCCS4(=O)=O)cc3[nH]2)c1N	8.05
Cc1cc(Oc2c(F)cccc2F)ncc1-n1ncc(C(=O)c2cc3cc(N4CCOCC4)c(N4CCCS4(=O)=O)cc3[nH]2)c1N	8.09
Cc1cc(Oc2cccc(Cl)c2)ncc1-n1ncc(C(=O)c2cc3cc(F)c(NS(C)(=O)=O)cc3[nH]2)c1N	7.52
Cc1cc(Oc2cccc(F)c2F)ncc1-n1ncc(C(=O)c2cc3cc(F)c(NS(=O)(=O)CCCF)cc3[nH]2)c1N	7.59

P: Cc1cc(Oc2ccccc2F)ncc1-n1ncc(C(=O)c2cc3cc(OC(F)F)c(NS(=O)(=O)C4CC4)cc3[nH]2)c1N
Q: Cc1cc2cc(C(=O)c3cnn(-c4ccc(Oc5ccccc5F)cc4C)c3N)[nH]c2cc1NS(=O)(=O)N1CCOCC1
R: COc1ccnc(S(=O)(=O)Nc2cc3[nH]c(C(=O)c4cnn(-c5cnc(Oc6c(F)cccc6F)cc5C)c4N)cc3cc2F)c1
// query Rank entries according to their pIC50, from the largest number down. Reply with the labels, ordered as the question asks.
// result Q, P, R
(Q: 7.62, P: 7.21, R: 7.01)

----------
target: human Lck enzyme (Homo sapiens, UniProt P06239); construct: purchased Carna Biosciences, Inc. 08-170; test: Lck enzyme inhibitory activity (time-resolved fluorometry, biotinylated peptide phosphorylation); format: biochemical; conditions: read-out: LCK_IC50
MEASURED PROPERTY: IC50 (nM)

Cc1cc2cc(C(=O)c3cnn(-c4cc(F)c(Oc5ccccc5F)cc4C)c3N)[nH]c2cc1NS(C)(=O)=O	37

P: Cc1cc(Oc2ccccc2F)ccc1-n1ncc(C(=O)c2cc3cc(OCC(F)F)c(N4C(=O)OC[C@H]4Cc4ccccc4)cc3[nH]2)c1N
Q: Cc1cc2cc(C(=O)c3cnn(-c4cnc(Oc5c(F)cccc5F)cc4C)c3N)[nH]c2cc1N1CC(C)(C)NS1(=O)=O
R: Cc1cc2cc(C(=O)c3cnn(-c4ccc(Oc5ccccc5F)cc4C)c3N)[nH]c2cc1N1C(=O)NC2(CCN(C3COC3)C2)C1=O (stereo not drawn)
S: Cc1cc(-n2ncc(C(=O)c3cc4cc(OC[C@H](O)CO)c(NS(C)(=O)=O)cc4[nH]3)c2N)ccc1Oc1ccccc1F
// query Put the items in order so that reported IC50 rises from first to last. Reply with the labels, ordered as the question asks.
// result R, Q, P, S

----------
biological target: human Src enzyme (Homo sapiens, UniProt P12931); construct: purchased Carna Biosciences, Inc. 08-173; experiment: Src enzyme inhibitory activity (time-resolved fluorometry, biotinylated peptide phosphorylation); type: biochemical; settings: read-out: SRC_IC50
Sequence (P12931 whole entry): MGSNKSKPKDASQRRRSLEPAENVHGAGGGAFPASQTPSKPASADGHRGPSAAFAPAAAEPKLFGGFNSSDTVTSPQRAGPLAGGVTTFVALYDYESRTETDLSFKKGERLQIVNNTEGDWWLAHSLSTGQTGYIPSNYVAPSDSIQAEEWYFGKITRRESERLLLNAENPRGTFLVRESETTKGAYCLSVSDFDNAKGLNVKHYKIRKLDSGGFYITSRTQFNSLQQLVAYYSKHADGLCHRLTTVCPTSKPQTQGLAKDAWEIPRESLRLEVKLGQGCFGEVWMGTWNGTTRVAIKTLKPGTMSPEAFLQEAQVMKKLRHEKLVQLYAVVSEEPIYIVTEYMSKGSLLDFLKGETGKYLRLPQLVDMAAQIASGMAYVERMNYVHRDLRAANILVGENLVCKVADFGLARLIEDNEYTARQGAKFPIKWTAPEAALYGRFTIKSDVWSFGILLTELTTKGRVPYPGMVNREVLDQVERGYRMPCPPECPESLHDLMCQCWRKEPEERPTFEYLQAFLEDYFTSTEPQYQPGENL
MEASURED PROPERTY: IC50 (nM)

Past entries and their recorded results:
Cc1cc2cc(C(=O)c3cnn(-c4ccc(Oc5ccccc5F)cc4C)c3N)[nH]c2cc1N1C(=O)NC2(CCC2)C1=O	30
Cc1cc(Oc2c(F)cccc2F)ncc1-n1ncc(C(=O)c2cc3cc(F)c(N4CCOCC4)cc3[nH]2)c1N	8.7
CS(=O)(=O)Nc1cc2[nH]c(C(=O)c3cnn(-c4c(F)cc(Oc5ccccc5F)cc4F)c3N)cc2cc1F	62
Cc1cc(Oc2c(F)cccc2F)ncc1-n1ncc(C(=O)c2cc3cc(F)c(N4CCN(S(C)(=O)=O)CC4)cc3[nH]2)c1N	11
Cc1cc2cc(C(=O)c3cnn(-c4cnc(Oc5ccccc5F)cc4C)c3N)[nH]c2cc1NS(=O)(=O)NC1CCOCC1	150
Cc1cc(Oc2c(F)cccc2F)ncc1-n1ncc(C(=O)c2cc3cc(OC4CCN(C5CCCC5)CC4)c(-c4ccccc4F)cc3[nH]2)c1N	38
Cc1cc(Oc2c(F)cccc2F)ncc1-n1ncc(C(=O)c2cc3cc(OC4CCN(C5CS(=O)(=O)C5)CC4)c(-c4ccccc4F)cc3[nH]2)c1N	48
Cc1cc(Oc2ccccc2F)ccc1-n1ncc(C(=O)c2cc3cc(C(C)C)c(N)cc3[nH]2)c1N	11
Cc1cc(-n2ncc(C(=O)c3cc4cc(OC5CCN(C6CCC6)CC5)c(N5C(=O)NC(C)(C)C5=O)cc4[nH]3)c2N)ccc1Oc1ccccc1F	340
Cc1cc(-n2ncc(C(=O)c3cc4cc(OC5CCN(C(C)C)CC5)c(N5C(=O)NC(C)(C)C5=O)cc4[nH]3)c2N)ccc1Oc1ccccc1F	95

A: Cc1cc(Oc2ccccc2F)ccc1-n1ncc(C(=O)c2cc3cc(OCC(F)F)c(N4CC(C)(C)NS4(=O)=O)cc3[nH]2)c1N
B: Cc1cc(Oc2c(F)cccc2F)ncc1-n1ncc(C(=O)c2cc3cc(F)c(N4CCCC4=O)cc3[nH]2)c1N
// query Smaller IC50 value? Options are A and B Please respond with the label that marks your chosen entry.
// result B
